meta.source: paper PMC11574021

Target: T1, Aurora-A^CAKD (Aurora-A kinase domain, aa 122–403 C290A, C393A), unphosphorylated (human, UniProt O14965 122-403, C290A | C393A)
T1 construct: Aurora-A kinase domain, human, residues 122-403, variant lacking surface cysteines; also called Aurora-A 122–403 C290A C393A; unphosphorylated Aurora-A^CAKD; source: E. coli RIL, co-expressed with lambda phosphatase, purified (HisTrap, TEV cleavage, SEC); not shown: His6, N-terminal, cleaved
T1 sequence (looked up): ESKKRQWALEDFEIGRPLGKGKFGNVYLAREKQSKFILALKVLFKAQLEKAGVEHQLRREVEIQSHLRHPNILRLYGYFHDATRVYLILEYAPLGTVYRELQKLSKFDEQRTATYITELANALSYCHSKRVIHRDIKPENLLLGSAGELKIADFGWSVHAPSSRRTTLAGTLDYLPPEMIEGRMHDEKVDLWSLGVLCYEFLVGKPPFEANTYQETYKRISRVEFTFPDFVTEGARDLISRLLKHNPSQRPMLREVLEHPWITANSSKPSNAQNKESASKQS
Experiment: ITC; 250 μM Aurora-A in the syringe, 25 μM CEP192 construct in the cell; 25 °C; 20 mM tris pH 7.5, 200 mM NaCl, 10% glycerol, 5 mM MgCl2
Conditions: both partners purified
measurement_kind: Kd (µM)
Kindly answer with a numeric value in µM, unit omitted.

| binder | Kd [µM] |
| --- | --- |
| human CEP192 468–533 (domain or fragment, UniProt Q8TEP8 468-533, looked up, also called CEP192_(506-527_F); source: E. coli B834 RIL, purified (HisTrap, TEV cleavage, SEC); for crystallisation co-expressed with Aurora-A^M7KD and co-purified; not shown: His6, N-terminal, cleaved; SUMO, N-terminal, cleaved) PQSVVYQNEEGRWVTDLAYYTSFNSKQNLNVSLSDEMNEDFRSGSEAFDLIAQDEEEFNKEHQFIQ | 0.0806 |

Entry under test: human CEP192 468–533 Y487A/F490A (domain or fragment, UniProt Q8TEP8 468-533, looked up, source: E. coli B834 RIL, purified (HisTrap, TEV cleavage, SEC); not shown: His6, N-terminal, cleaved; SUMO, N-terminal, cleaved) PQSVVYQNEEGRWVTDLAYATSANSKQNLNVSLSDEMNEDFRSGSEAFDLIAQDEEEFNKEHQFIQ . Its Kd was 2
